Assay method text: chemical genetic growth profiling, strain panel (AID 1159580);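 further: tested at 20 µM; growth read once vehicle control cultures reached saturation at 30 °C; 1 = growth at the plate median or of vehicle wells; lower values mean less growth of the strain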
Condition notes: S. cerevisiae deletion strains, growth OD, locus YNL322C, strain KRE1 (second series), active compounds read low
Screen size: about 5,500 compounds; about 2,000 (36%) were called active. Roughly 18% stayed inconclusive and do not appear here. This is one part of the list.
# Lookup of reported normalized growth keyed by entry

Reference set, count: 5
• COc1cc2c(cc1OC)C(C)NCC2 (stereo not given) = 0.95 (inactive)
• O=C(N[C@@H](CO)[C@H](O)c1ccc([N+](=O)[O-])cc1)C(Cl)Cl = 1.04 (inactive)
• CC1(C)CC23C(=O)CCC(O)C2(C)CCC13 (stereo not given) = 1 (inactive)
• CC1=C(C(=O)O)N2C(=O)[C@@H](NC(=O)[C@@H](N)c3ccc(O)cc3)[C@H]2SC1 = 1.03 (inactive)
• COc1ccccc1OCC(O)COC(N)=O (stereo not given) = 0.987 (inactive)

Field request: normalized growth | item: CC(=O)OC1CCC23CC1(C)CCC2C(C)(C)CC3OC(C)=O (stereo not given)
1.01 (inactive)

Do the same for CNC(C)[C@@H]1CC[C@@H](N)[C@@H](OC2[C@@H](N)C[C@@H](N)[C@H](OC3OC[C@](C)(O)[C@H](NC)[C@H]3O)[C@H]2O)O1 (stereo not given in full) please
0.988 (inactive)

Okay, and CCCCCCCCCCCCCCCC(=O)OC[C@H](NC(=O)C(Cl)Cl)[C@H](O)c1ccc([N+](=O)[O-])cc1 ?
1.05 (inactive)

CCC1(C2=NCCN2)Cc2ccccc2O1 (stereo not given) , same question.
1 (inactive)

And for CC(=O)OC1CCC2(O)CC1(C)CCC1C2CC1(C)C (stereo not given) ?
1.01 (inactive)

====

Assay method text: chemical genetic growth profiling, strain panel (AID 1159580)
Condition notes: S. cerevisiae deletion strains, growth OD, locus YER167W, strain BCK2
About 2,000 (36%) of roughly 5,500 compounds were called active. Another 18% or so got no clear call; they are omitted. Rule as the data show it: active = normalized growth mostly below about 0.91 (no sharp cut-off); inconclusive = no clear call, values can overlap the other calls; inactive = mostly above about 0.92. This is one part of the list.
Lab note: assign the record to one of active, inactive

See these solved cases before continuing.
• CN1C(=O)CC[C@H]1c1cccnc1 = inactive
• CNC(=O)Oc1cccc2c1OC(C)(C)C2 = inactive
• CC(=O)CCCCn1c(=O)c2c(ncn2C)n(C)c1=O = inactive
• CC(C)C1CCC(C(=O)N[C@@H](Cc2ccccc2)C(=O)O)CC1 (some centres not stated) = inactive
• COc1ccc(-c2c(O)c3c(OC)c4c(cc3oc2=O)OC(C)(C)C=C4)cc1 = inactive

Returns: the outcome recorded for CN1CCC[C@H]1c1cccnc1 in this assay.
inactive

Same again, this time with ClC1C(Cl)C(Cl)C(Cl)C(Cl)C1Cl (configuration not stated)
active

====

Assay method text: chemical genetic growth profiling, strain panel (AID 1159580)
Condition notes: S. cerevisiae deletion strains, growth OD, locus YLR221C, strain rsa3
Screen size: about 5,500 compounds; about 2,000 (36%) were called active. Another 18% or so got no clear call; they are omitted. Cut-off read from the data, not from the text of the source: active = normalized growth mostly below about 0.91 (no sharp cut-off); inconclusive = no clear call, values can overlap the other calls; inactive = mostly above about 0.92. Some of the results follow.
Hi! Could you answer with just one of these? active, inactive

- COc1cc(O)c2c(c1)C(=O)c1cc(C)cc(O)c1C2=O: inactive
- O=C(/C=C/c1ccc(O)cc1)c1ccccc1O: active
- CC(=O)OC[C@@]1(O)C[C@@]23CCC4c5ccoc5CC[C@]4(C)C2CC[C@@H]1C3 (some centres not stated): inactive
- CC12CCC(OC(=O)c3ccccc3)CC1CCc1ccccc12 (configuration not stated): inactive
- CC1CC(OC(=O)c2ccccc2O)CC(C)(C)C1 (configuration not stated): inactive
- O=C(O)C1=C(CSc2nnnn2CS(=O)(=O)O)CS[C@@H]2C(NC(=O)[C@H](O)c3ccccc3)C(=O)N12 (some centres not stated): inactive
- COc1cc(O)ccc1C(C)=O: inactive
- CCC[C@@H]1C[C@@H](C(=O)N[C@H]([C@H]2O[C@H](SC)[C@H](O)[C@@H](O)[C@H]2O)[C@H](C)O)N(C)C1: inactive
- COC1=CC23CCCN2CCc2cc4c(cc2C3C1O)OCO4 (configuration not stated): inactive
- O=c1c(O)c(-c2ccccc2)oc2ccccc12: active

Test call for this compound, please: O=c1c(O)c(-c2ccccc2)oc2cc(O)ccc12
active

Now consider CC12CCC(O)CC1CCc1ccccc12 (configuration not stated) .
inactive

For CCCC(=O)Nc1ccc(OCC(O)CNC(C)C)c(C(C)=O)c1 (configuration not stated) then?
inactive

Could you do the same for COC(=O)C[C@H]1C(C)(C)[C@@H](OC(C)=O)[C@@H]2CC3=C4CC(=O)O[C@@H](c5ccoc5)[C@]4(C)CCC3[C@@]1(C)C2=O (some centres not stated) , please?
inactive

====

Listing: normalized growth of selected compounds
Assay method text: chemical genetic growth profiling, strain panel (AID 1159580)
Condition notes: S. cerevisiae deletion strains, growth OD, locus YPL240C, strain hsp82, active compounds read low
Hit rate of the full screen: of about 5,500 compounds, about 2,000 (36%) were called active. Another 18% or so got no clear call; they are omitted. The list shows a part of the results.
Note: the reply should be a number with no unit written.

Some compounds with recorded normalized growth:
- O=C(O)[C@H]1/C(=C/CO)O[C@@H]2CC(=O)N21: 1.01
- O=C(/C=C/c1ccccc1)c1ccc(O[C@@H]2O[C@H](CO)[C@@H](O)[C@H](O)[C@H]2O)cc1O: 0.932
- O=C(/C=C/c1ccc(O)cc1)c1ccc(O)cc1O: 1.01
- C[C@H]1C(=O)CCC2[C@]3(C)CC[C@@]4(C)C5CC(C)(C)CC[C@]5(C)CC[C@]4(C)C3CC[C@@]21C (stereo not given in full): 0.997
- OC[C@H]1O[C@@H](Oc2ccc(O)cc2)[C@H](O)[C@@H](O)[C@@H]1O: 1.01
- CC(=O)CCCCn1c(=O)c2c(ncn2C)n(C)c1=O: 1.01
- NS(=O)(=O)c1cc2c(cc1Cl)NCNS2(=O)=O: 1
- COc1cc(OC)c2c(OC)c(-c3ccc4c(c3)OCO4)c(=O)oc2c1: 0.984
- COc1ccc(-c2c(O)c3c(OC)c4c(cc3oc2=O)OC(C)(C)C=C4)cc1: 0.95

Value lookup for normalized growth; key = COC1=CC23CCCN2CCc2cc4c(cc2C3C1O)OCO4 (stereo not given)
1.02

====

Assay method text: chemical genetic growth profiling, strain panel (AID 1159580);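 further: tested at 20 µM; growth read once vehicle control cultures reached saturation at 30 °C; 1 = growth at the plate median or of vehicle wells; lower values mean less growth of the strain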
Condition notes: S. cerevisiae deletion strains, growth OD, locus YKL009W, strain mrt4, active compounds read low
In all, about 5,500 compounds went through this assay and about 2,000 (36%) were called active. Inconclusive results (about 18%) are left out. This is one part of the list.
Readout: normalized growth

* CC(C)OC(=O)Nc1cccc(Cl)c1 | 0.954 (inactive)
* O=C1C(=O)c2ccccc2C(O)=C1C1CCC(c2ccc(Cl)cc2)CC1 (stereo unspecified) | 0.997 (inactive)
* C[C@]12CC[C@@H](O)C[C@H]1CCc1ccccc12 | 1.01 (inactive)
* CN(C)CCC[C@@]1(c2ccc(F)cc2)OCc2cc(C#N)ccc21 | 1.03 (inactive)
* CC(C)[C@@H]1CC[C@@H](C)C[C@H]1OC(=O)c1ccccc1 | 0.985 (inactive)

Which value of normalized growth has been reported for CC(C)C1CCC(C(=O)N[C@@H](Cc2ccccc2)C(=O)O)CC1 (stereo partly specified) in the records?
0.963 (inactive)

====

Assay method text: chemical genetic growth profiling, strain panel (AID 1159580);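 further: tested at 20 µM; growth read once vehicle control cultures reached saturation at 30 °C; 1 = growth at the plate median or of vehicle wells; lower values mean less growth of the strain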
Condition notes: S. cerevisiae deletion strains, growth OD, locus YJR066W, strain TOR1, active compounds read low
The campaign covered roughly 5,500 compounds. About 2,000 (36%) were called active. About 18% were inconclusive and are not listed. This is one part of the list.
We begin with a simple list: items and their reported normalized growth.
Write the number on its own, no unit after it.

Some entries whose results are on file:
- CC(C)N1C(=O)c2ccccc2NS1(=O)=O: 0.962
- COc1cc(OC)c2c(OC)c(-c3ccc4c(c3)OCO4)c(=O)oc2c1: 0.95
- CC(=O)OCC1=C(C(=O)O)N2C(=O)[C@@H](NC(=O)CSc3ccncc3)[C@H]2SC1: 0.987
- COC1=C(OC)C(=O)C(CCCCCCCCCCO)=C(C)C1=O: 0.934
- O=C1c2ccccc2C(=O)C1(O)C1(O)C(=O)c2ccccc2C1=O: 0.953

Entry under review: COc1cc([C@@H]2c3cc4c(cc3[C@H](O)[C@H]3COC(=O)[C@H]23)OCO4)cc(OC)c1OC . Reported normalized growth?
0.927

What do you have for O=C(Nc1ccc(F)cc1)c1cc(Br)ccc1O ?
0.786

Item: O=S(=O)(Nc1c(F)cccc1F)c1ccc(Cl)c(Cl)c1
1.03

====

Assay method text: chemical genetic growth profiling, strain panel (AID 1159580);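 further: tested at 20 µM; growth read once vehicle control cultures reached saturation at 30 °C; 1 = growth at the plate median or of vehicle wells; lower values mean less growth of the strain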
Condition notes: S. cerevisiae deletion strains, growth OD, locus YLR403W, strain SFP1
About 2,000 (36%) of roughly 5,500 compounds were called active. About 18% were inconclusive and are not listed. Rule as the data show it: active = normalized growth mostly below about 0.91 (no sharp cut-off); inconclusive = no clear call, values can overlap the other calls; inactive = mostly above about 0.92. This is one part of the list.
Lab note: assign the record to one of yes for active, no for inactive

Which outcome was entered for the molecule N#CC(C(=O)Nc1cccc(C(F)(F)F)c1)C(=S)Nc1ccccc1Cl (stereo unspecified) in this test?
no

Can you handle O=S(=O)(Nc1c(F)cccc1F)c1ccc(Cl)c(Cl)c1 next?
no

What do we get for COc1cc(C2SCCS2)cc(Br)c1OC(=O)NC(=O)c1c(Cl)cccc1Cl ?
no

Cool, now COC(=O)c1cccc(NS(=O)(=O)c2ccc(Cl)c(Cl)c2)c1
no

Another molecule to look at: O=C(Nc1cc(Cl)cc(Cl)c1)c1cc(Cl)ccc1O
yes

Note, next up: Cc1cc2nc3c(Cl)c(O)c4ccccc4c3nc2cc1C
no
